Biological target: Lethal factor protease (Bacillus anthracis)
Sequence (P15917 34-809 limits assumed): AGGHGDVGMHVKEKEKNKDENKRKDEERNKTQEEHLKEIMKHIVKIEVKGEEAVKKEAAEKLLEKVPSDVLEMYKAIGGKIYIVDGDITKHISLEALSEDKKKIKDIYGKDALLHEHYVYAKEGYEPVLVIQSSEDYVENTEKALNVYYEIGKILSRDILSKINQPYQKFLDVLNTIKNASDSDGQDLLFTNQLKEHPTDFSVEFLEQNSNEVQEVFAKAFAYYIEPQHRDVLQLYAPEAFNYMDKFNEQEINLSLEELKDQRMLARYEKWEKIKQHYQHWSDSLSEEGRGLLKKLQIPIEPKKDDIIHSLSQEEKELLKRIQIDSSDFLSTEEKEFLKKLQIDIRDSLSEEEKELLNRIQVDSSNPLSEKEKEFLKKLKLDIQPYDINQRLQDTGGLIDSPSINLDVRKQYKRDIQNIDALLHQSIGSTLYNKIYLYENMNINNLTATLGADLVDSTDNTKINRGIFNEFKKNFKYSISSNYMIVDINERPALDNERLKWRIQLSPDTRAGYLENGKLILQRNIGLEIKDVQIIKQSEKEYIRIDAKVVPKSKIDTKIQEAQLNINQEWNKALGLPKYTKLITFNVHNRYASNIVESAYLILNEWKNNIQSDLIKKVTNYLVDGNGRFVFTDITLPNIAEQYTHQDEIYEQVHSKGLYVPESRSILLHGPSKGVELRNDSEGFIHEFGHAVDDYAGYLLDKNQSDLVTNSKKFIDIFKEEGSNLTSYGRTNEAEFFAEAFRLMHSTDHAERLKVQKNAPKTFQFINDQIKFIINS
Experiment: biochemical
pKi: −log10 of the molar value.
Quick rule: pKi of at least 6 means label 1, below that means label 0.

molecule="CCCCC(Nc1cccc(C(C)C)c1)C(=O)NO (stereo not drawn)" label_class="label 0"
molecule="Cc1cc(NC(C(=O)NO)c2ccccc2)ccc1F (stereo not drawn)" label_class="label 0"
molecule=Cc1cc(N[C@H](C)C(=O)NO)cc(C)c1F label_class="label 1"
molecule="CCCCC(Nc1ccc(F)cc1)C(=O)NO (stereo not drawn)" label_class="label 0"

// query Check this molecule for pKi at or above 6: Cc1cc(N[C@@H](C(=O)NO)c2ccccc2)cc(C)c1F
// result label 1

// query What do you get for Cc1cc(N[C@H](CCCCNC(=O)CCC(=O)O)C(=O)NO)cc(C)c1F ?
// result label 0

// query What do you get for CCCCC(Nc1cc(Br)cc(Br)c1)C(=O)NO (stereo not drawn) ?
// result label 0

====

Measured Ki (Lethal factor protease (Bacillus anthracis))
Entry rule: numbers only, all in µM.

Below, 3 compounds whose answers are already recorded.
compound="Cc1cc(N[C@H](CCCCN(Cc2ccc(F)nc2)Cc2ccc(F)nc2)C(=O)NO)ccc1F [Compound 168080]" system_name="Lethal factor protease (Bacillus anthracis)" observed=10.6
compound="Cc1cc(N[C@H](CCCCN(Cc2ccccc2)Cc2ccccc2)C(=O)NO)ccc1F [Compound 167982]" system_name="Lethal factor protease (Bacillus anthracis)" observed=1.8
compound="Cc1cc(N[C@H](CCCCNCc2ccc(F)nc2)C(=O)NO)ccc1F [Compound 167978]" system_name="Lethal factor protease (Bacillus anthracis)" observed=0.26

// query Query (compound): Cc1cc(N[C@H](C(=O)NO)C(C)C)cc(C)c1F [Compound 167296] ; field requested: Ki
// result 201

====

Biological target: Lethal factor protease (Bacillus anthracis)
measurement name: Ki (nM)
Entry rule: numbers only, all in nM.

compound="Cc1cc(N[C@H](CCCCN(Cc2ccc(F)cc2)Cc2ccc(F)cc2)C(=O)NO)ccc1F [Compound 167963]" measurement_name=Ki observed=1100
compound="Cc1cc(N[C@H](CCCCNC(=O)CCc2ccccc2)C(=O)NO)ccc1F [Compound 167993]" measurement_name=Ki observed=880
compound="CCCCC(Nc1ccc(Cl)cc1)C(=O)NO (stereo not drawn) [Compound 167256]" measurement_name=Ki observed=187000
compound="Cc1cc(N[C@H](CCCCN)C(=O)NO)ccc1F [Compound 167949]" measurement_name=Ki observed=200
compound="Cc1cc(N[C@H](CCCCN(Cc2ccccc2)Cc2ccccc2)C(=O)NO)cc(C)c1F [Compound 167738]" measurement_name=Ki observed=430
compound="Cc1cc(NC(CCC(F)(F)F)C(=O)NO)cc(C)c1F (stereo not drawn) [Compound 167482]" measurement_name=Ki observed=1100
compound="Cc1cc(N[C@H](CCCCNS(=O)(=O)c2ccc(F)cc2)C(=O)NO)cc(C)c1F [Compound 167589]" measurement_name=Ki observed=1250
compound="Cc1cc(NC(C)C(=O)NO)cc(C)c1F (stereo not drawn) [Compound 167486]" measurement_name=Ki observed=690

// next item, Ki requested
// query Query (compound): Cc1cc(N[C@H](CCCCNC(=O)OC(C)(C)C)C(=O)NO)cc(C)c1F [Compound 167561] ; field requested: Ki
// result 710
